Data origin: patent US20260347310A1

EXPERIMENTAL_PROTOCOL: Pharmacokinetics in plasma of rats after oral and intravenous dosing; oral bioavailability
Type: in vivo, Sprague Dawley rats
CONDITION_SET: rat plasma, PO 10 mg/kg, racemate, 10% captisol, fasted; read-out: AUC0-last (po)
READOUT_KIND: AUC(0-t)

# AUC(0-t) of CCCCCCc1cc(OC)c(CC(N)CC)cc1OC (racemic) = 138 ng·h/mL

###

SYSTEM_NAME: 5-HT2A receptor (Homo sapiens)
Sequence (P28223 whole entry): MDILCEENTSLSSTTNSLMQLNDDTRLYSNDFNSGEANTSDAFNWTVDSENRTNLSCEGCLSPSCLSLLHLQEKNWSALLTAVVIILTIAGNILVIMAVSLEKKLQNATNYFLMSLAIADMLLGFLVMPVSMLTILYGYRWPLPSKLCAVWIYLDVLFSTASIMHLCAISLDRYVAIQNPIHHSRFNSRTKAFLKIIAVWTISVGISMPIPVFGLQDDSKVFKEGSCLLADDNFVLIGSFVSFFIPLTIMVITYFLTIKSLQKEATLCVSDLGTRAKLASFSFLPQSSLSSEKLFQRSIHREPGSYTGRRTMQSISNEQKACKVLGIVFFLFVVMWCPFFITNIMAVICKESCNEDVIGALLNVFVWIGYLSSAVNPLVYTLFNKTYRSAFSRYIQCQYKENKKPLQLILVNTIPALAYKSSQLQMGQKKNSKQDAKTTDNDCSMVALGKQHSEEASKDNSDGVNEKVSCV
EXPERIMENTAL_PROTOCOL: FLIPR Ca2+ flux functional agonist assay at 5-HT2A
Type: cell-based
Design: expressed in transfected cells; host or cells: HEK293
READOUT_KIND: EC50

CCCCCCc1cc(OC)c(C[C@H](N)CC)cc1OC
0.0231 µM

Fill in EC50 for each of the 3 compounds listed.
1. CCCCCCc1cc(OC)c(C[C@@H](N)CC)cc1OC
2. CCC(N)Cc1cc(OC)c(CCCCCC(F)(F)F)cc1OC (racemic)
3. CCC(N)Cc1cc(OC)c(CCCCC(C)(F)F)cc1OC (stereo not shown)

Solution:
1: 0.0438 µM; 2: 0.156 µM; 3: 5.06 µM

###

5-HT2A receptor (Homo sapiens) data, read-out Ki
Numbers only, in nM.

Some solved cases for reference:
CCC(N)Cc1cc(OC)c(CCCCC(C)(F)F)cc1OC (stereo not shown)
9.52
CCCCCCc1cc(OC)c(C[C@@H](N)CC)cc1OC
3.34
CCCCCCc1cc(OC)c(C[C@H](N)CC)cc1OC
3.44

# Ki of CCC(N)Cc1cc(OC)c(CCCCCC(F)(F)F)cc1OC (racemic) = 5.4

###

EXPERIMENTAL_PROTOCOL: Metabolic stability in dog liver microsomes (DLM)
Type: in vitro ADME, Beagle dogs
CONDITION_SET: dog liver microsomes 0.50 mg/mL, NADPH 1 mM, test compound 1 μM, 37° C., pH 7.4, 60 min
READOUT_KIND: microsomal CLint at 1 µM (µL/min/mg)
Numbers only, in µL/min/mg.

CCC(N)Cc1cc(OC)c(CCCCCC(F)(F)F)cc1OC (racemic)
19.4
[2H]C([2H])([2H])CCCCCc1cc(OC)c(CC(N)CC)cc1OC (centres unmarked)
41.5
CCC(N)Cc1cc(OC)c(CCCCC(C)(F)F)cc1OC (centres unmarked)
19.4

Fill in microsomal CLint at 1 µM for each of the 2 molecules listed.
1. CCCCCCc1cc(OC)c(C[C@@H](N)CC)cc1OC
2. CCCCCCc1cc(OC)c(C[C@H](N)CC)cc1OC

Solution:
1: 60.4; 2: 122

###

EXPERIMENTAL_PROTOCOL: Pharmacokinetics in plasma of rats after oral and intravenous dosing; oral bioavailability
Type: in vivo, Sprague Dawley rats
CONDITION_SET: rat plasma, PO 10 mg/kg, racemate, 10% captisol, fasted; read-out: t1/2 (po) (converted)
Description: The pharmacokinetics of disclosed compounds were determined in the plasma of rats after oral and intravenous dosing, with the results presented in Table 13. Animals. Male Sprague Dawley rats were used in these studies. […] Sample Collection and Bioanalysis. […] Following centrifugation, collected samples were analyzed using a fit-for-purpose LC-MS/MS method, with authentic samples of the analyte used for calibration and identification. […]
READOUT_KIND: half-life (min)
Give bare numbers, in min.

# half-life of CCCCCCc1cc(OC)c(CC(N)CC)cc1OC (racemic) = 158
